- SYSTEM_TESTED: mouse melanocortin 1 receptor (mouse, UniProt Q01727 1-315)
- Sequence (Q01727 whole entry): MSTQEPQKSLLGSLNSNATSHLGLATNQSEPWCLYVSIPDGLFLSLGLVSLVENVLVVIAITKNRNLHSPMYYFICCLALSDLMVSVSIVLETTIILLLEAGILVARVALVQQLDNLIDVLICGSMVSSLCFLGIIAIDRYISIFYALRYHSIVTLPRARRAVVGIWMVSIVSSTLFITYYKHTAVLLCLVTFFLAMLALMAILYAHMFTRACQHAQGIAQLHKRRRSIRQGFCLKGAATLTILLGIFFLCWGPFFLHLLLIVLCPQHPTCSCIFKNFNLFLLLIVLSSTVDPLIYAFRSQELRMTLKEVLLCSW
- ASSAY_PROCEDURE: cell-based or functional assay
Square brackets hold non-standard residues; d marks the D form. Gly(N-(CH2)3-guanidino) = N=C(N)NCCCNCC(=O)O; Nphe = O=C(O)CNCc1ccccc1
QUANTITY: Partial Agonist, percent of NDP-MSH (cAMP) (%)
Give bare numbers, in %.

Example entries and their recorded answers appear below.
BINDER	ASSAY_VALUE
PRFFXAFP (head-to-tail cyclic; NPhe (N-benzylglycine) at 4; Dap at 5; DPro at 8) [MDE9-93c]	60
PRFFXAFP (head-to-tail cyclic; NPhe (N-benzylglycine) at 3; Dap at 5; DPro at 8) [MDE9-32c]	80
cyclo(P[Gly(N-(CH2)3-guanidino)]FFNAF[dP]) (SMILES C[C@@H]1NC(=O)[C@H](CC(N)=O)NC(=O)[C@H](Cc2ccccc2)NC(=O)[C@H](Cc2ccccc2)NC(=O)CN(CCCNC(=N)N)C(=O)[C@@H]2CCCN2C(=O)[C@H]2CCCN2C(=O)[C@H](Cc2ccccc2)NC1=O) [MDE7-26-1c]	50

Documented Partial Agonist, percent of NDP-MSH (cAMP) of cyclo(PRF[Nphe]NAF[dP]) [MDE9-88c] : 70
